Target: T1, RBFOX1 RRM (Homo sapiens, UniProt Q9NWB1 109-208)
T1 sequence: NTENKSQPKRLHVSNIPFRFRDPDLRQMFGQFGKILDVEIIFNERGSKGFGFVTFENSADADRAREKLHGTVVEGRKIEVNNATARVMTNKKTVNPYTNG
Assay: EMSA; HiTS-Eq, 1 nM pool, 10 min; buffer printed only for the single-RNA assays: 10 mM Tris pH 7.5, 150 mM NaCl, 3.4 mM EDTA, 0.001% NP-40, 30 C
Details: tags: His6 N-terminal (pET28a); label: 5' 32P
In all, about 16,000 sequences were measured (“ka relative to ugcaugu”: median about 0.0091, highest 2% from about 0.032 on). The entries come from a sample that favours the highest values as a whole.
quantity: binding signal

{"binder": "UGCCGGU (DNA:RNA) RNA: GGGAGACCGGAAUUCAGAUUGUCCUGCCGGUUUAAAUCCCGUCGUAGCCACCA DNA 1: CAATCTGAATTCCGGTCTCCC DNA 2: TGGTGGCTACGACGGGATT", "value": "0.0131 KA relative to UGCAUGU"}

The record that follows has no binding signal shown yet.
Per the record, CUGCCUG (DNA:RNA) RNA: GGGAGACCGGAAUUCAGAUUGUCCCUGCCUGUUAAAUCCCGUCGUAGCCACCA DNA 1: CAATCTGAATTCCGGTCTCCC DNA 2: TGGTGGCTACGACGGGATT has binding signal of 0.0391 KA relative to UGCAUGU
